system: HAdV5-GFP; assay: microbe, parasite or virus in culture; type: cell-based, human adenovirus; details: Human adenovirus sp., read-out: Plaque Assay IC50
pIC50: −log10 of the molar value.
ASSAY ENDPOINT: pIC50

1. O=C(NCC1CCCCC1)c1cc(Cl)ccc1O [Compound 16] | 6.11
2. C[C@H](NC(=O)c1cc(Cl)ccc1O)C1CCCCC1 [Compound 17] | 6.29
3. O=C(NCCC1CCCCC1)c1cc(Cl)ccc1O [Compound 20] | 6.00
4. O=C(NC1CCCCCC1)c1cc(Cl)ccc1O [Compound 13] | 5.33
5. O=C(Nc1ccc([N+](=O)[O-])cc1Cl)c1cc(Cl)ccc1O [Compound 3, niclosamide, reference compound] | 6.22
6. CCCCCCNC(=O)c1cc(Cl)ccc1O [Compound 24, 5-Chloro-N-hexyl-2-hydroxybenzamide] | 5.43
